Cited source for all entries: ChEMBL document CHEMBL3407499

Test system: Candida tropicalis
experiment_summary: Fungicidal activity against Candida tropicalis ATCC 750 incubated at 37 degC for 48 hrs by broth dilution method
Type: functional
condition_notes: ATCC 750, 48 h
MFC values for the compounds below.

Returns the measured MFC for the input compound. Input: COc1ccccc1O [GUAIACOL]
> 1000 µg/mL

Further, for C=CCc1ccc(O)c(OC)c1 [EUGENOL] ?
> 1000 µg/mL

Would you kindly repeat that for CC(C)c1ccc(O)cc1 ?
> 1000 µg/mL
